Task for the reader: assign each of the following molecules its reported pIC50.
# assay_system: recombinant human NRP-1 (hNRP-1) (Homo sapiens)
# Sequence (O14786 22-923): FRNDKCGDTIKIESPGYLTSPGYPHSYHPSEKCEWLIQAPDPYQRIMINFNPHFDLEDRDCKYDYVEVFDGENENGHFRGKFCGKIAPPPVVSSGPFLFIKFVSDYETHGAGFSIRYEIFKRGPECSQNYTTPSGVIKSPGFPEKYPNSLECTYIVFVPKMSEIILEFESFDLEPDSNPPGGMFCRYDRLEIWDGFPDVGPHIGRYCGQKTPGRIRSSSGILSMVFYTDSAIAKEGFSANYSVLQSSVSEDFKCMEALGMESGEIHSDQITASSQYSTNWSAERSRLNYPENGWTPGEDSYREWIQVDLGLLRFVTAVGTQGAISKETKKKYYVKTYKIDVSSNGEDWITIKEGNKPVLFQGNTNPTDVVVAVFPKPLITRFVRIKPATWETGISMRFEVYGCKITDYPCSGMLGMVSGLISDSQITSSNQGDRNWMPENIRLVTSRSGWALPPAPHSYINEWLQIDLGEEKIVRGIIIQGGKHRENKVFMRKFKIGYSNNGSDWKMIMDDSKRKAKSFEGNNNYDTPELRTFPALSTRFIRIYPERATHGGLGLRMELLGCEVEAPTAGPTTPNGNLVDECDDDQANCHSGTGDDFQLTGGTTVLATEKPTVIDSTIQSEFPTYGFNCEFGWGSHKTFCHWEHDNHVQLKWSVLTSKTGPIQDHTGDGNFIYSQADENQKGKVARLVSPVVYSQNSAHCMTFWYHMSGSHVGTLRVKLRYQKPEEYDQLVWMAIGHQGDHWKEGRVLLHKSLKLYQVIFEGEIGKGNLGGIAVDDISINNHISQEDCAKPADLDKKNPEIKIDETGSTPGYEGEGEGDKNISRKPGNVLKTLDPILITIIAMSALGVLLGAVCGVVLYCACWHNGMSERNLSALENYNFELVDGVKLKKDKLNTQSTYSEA
# test_protocol: chemoluminescence affinity detection: displacement of biotinylated VEGF165A from coated NRP-1
# condition: VEGF 165A displacement from NRP-1; compounds at 12.5-100 µM; ± standard (fitting) error
FYI, pIC50 means -log10 of a concentration in mol per litre.

What measured pIC50 goes with CC(C)(c1cn([C@@H](CCCNC(=N)N)C(=O)O)nn1)n1cc(CNC(=O)[C@H](N)CCCCNC(=O)[C@@H](N)CCCCNC(=N)N)nn1 [2D, H-D-Lys(Har)-Gly[Trl]Mba[Trl]Arg-OH] ?
4.16

What measured pIC50 goes with N=C(N)NCCCC[C@H](N)C(=O)NCCCC[C@@H](N)C(=O)NCc1cn(Cc2cn([C@@H](CCCNC(=N)N)C(=O)O)nn2)nn1 [1D, H-D-Lys(Har)-Gly[Trl]Gly[Trl]Arg-OH] ?
4.20

What measured pIC50 goes with CC(C)(c1cn([C@@H](CCCNC(=N)N)C(=O)O)nn1)n1cc(CNC(=O)[C@@H](N)CCCCNC(=O)[C@@H](N)CCCCNC(=N)N)nn1 [2L, H-Lys(Har)-Gly[Trl]Mba[Trl]Arg-OH] ?
4.06

What measured pIC50 goes with N=C(N)NCCCC[C@H](N)C(=O)NCCCC[C@H](N)C(=O)NCc1cn(Cc2cn([C@@H](CCCNC(=N)N)C(=O)O)nn2)nn1 [1L, H-Lys(Har)-Gly[Trl]Gly[Trl]Arg-OH] ?
4.16
